# Tested on: Mythimna separata
# Assay Notes: Larvicidal activity against Oriental armyworm
# Type: functional
I'd appreciate it if you could supply log10 of LC50 values for the items below.
# values: log10(LC50), units µg/mL

Entry CC(C)(C)N(NC(=O)c1ccc2c(c1Cl)CCCO2)C(=O)c1ccc(Cl)cc1[N+](=O)[O-] : reported log10 of LC50 = ? 0.44

Now this one: CC(C)(C)N(NC(=O)c1ccc2c(c1Cl)CCCO2)C(=O)c1cccc([N+](=O)[O-])c1 2.60

Now consider CC(C)(C)N(NC(=O)c1ccc2c(c1Cl)CCCO2)C(=O)c1ccc(Cl)cc1 . 0.61

Next entry: CCOc1ccc(C(=O)N(NC(=O)c2ccc3c(c2Cl)CCCO3)C(C)(C)C)cc1 2.33

Follow-up item: CC(C)(C)N(NC(=O)c1ccc2c(c1Cl)CCCO2)C(=O)c1ccccc1[N+](=O)[O-] 0.82
